From: PubChem BioAssay AID2626

Biological target: Muscarinic acetylcholine receptor M1 (Rattus norvegicus) (UniProt P08482)
Sequence (P08482 whole entry, looked up): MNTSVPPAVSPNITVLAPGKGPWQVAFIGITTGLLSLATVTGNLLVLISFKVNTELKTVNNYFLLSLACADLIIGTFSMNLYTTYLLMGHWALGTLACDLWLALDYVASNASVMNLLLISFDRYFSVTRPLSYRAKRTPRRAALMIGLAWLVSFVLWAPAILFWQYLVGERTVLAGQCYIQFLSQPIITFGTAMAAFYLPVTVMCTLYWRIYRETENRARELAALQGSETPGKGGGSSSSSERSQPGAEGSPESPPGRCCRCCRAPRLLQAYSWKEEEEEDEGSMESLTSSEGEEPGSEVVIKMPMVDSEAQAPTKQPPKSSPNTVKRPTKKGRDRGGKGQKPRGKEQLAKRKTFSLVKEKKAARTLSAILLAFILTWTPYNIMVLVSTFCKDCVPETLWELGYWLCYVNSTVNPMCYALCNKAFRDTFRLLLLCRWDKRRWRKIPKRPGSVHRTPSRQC
Experiment: rat M1 positive allosteric modulators, single dose, ACh EC20, CHO cells (AID 2626)
Conditions: CHO rM1 cells, calcium response with ACh EC20; at 10 µM; hits give high values
READOUT_NAME: % of ACh max response (PAM) (%)
Could you give me the number in %? Just the number is fine.

Which % of ACh max response (PAM) value is on record for Cc1cc(NC(=O)CS(=O)c2cn(Cc3cccc(Cl)c3)c3ccccc23)no1 (centres undefined) ? 72.4

Check Cc1cc(NC(=O)CS(=O)(=O)c2cn(Cc3cc(Br)cc(Br)c3)c3ccccc23)no1 too. 12.7

// query: O=C(O)CS(=O)(=O)c1cn(Cc2cc(Br)ccc2F)c2ccccc12 18.1

Also Cc1cc(NC(=O)CSc2c[nH]c3ccccc23)no1 , if possible. 28.8

Now consider Cc1cc(NC(=O)CS(=O)(=O)c2cn(Cc3cccc(-c4ccc(Cl)nc4)c3)c3ccccc23)no1 and answer again. 26.4

Then Cc1cc(NC(=O)CS(=O)(=O)c2cn(Cc3cccc(-c4ccc(N5CCCC5)nc4)c3)c3ccccc23)no1 ? 33.3

Consider next the compound COC(=O)CS(=O)(=O)c1cn(Cc2cc(Br)ccc2F)c2ccccc12 in the same way. 7.5

Could you do the same for Cc1cc(NC(=O)CS(=O)(=O)c2cn(Cc3ccc(C(F)(F)F)cc3)c3ccccc23)no1 , please? 30.4

What about Cc1cc(NC(=O)C(Cc2ccc(OC(F)(F)F)cc2)S(=O)(=O)c2cn(Cc3ccc(OC(F)(F)F)cc3)c3ccccc23)no1 (centres undefined) ? 28.7

Do the same for CS(=O)(=O)c1cn(Cc2ccccc2Cl)c2ccccc12 please 26.3

O=C(CS(=O)(=O)c1cn(Cc2cc(Br)ccc2F)c2ccccc12)Nc1ccccc1 ? 13.9

Then Cc1cc(NC(=O)CS(=O)(=O)c2cn(Cc3cccc(-c4cnn(CC(C)C)c4)c3)c3ccccc23)no1 ? 24.4

Moving on to Cc1cc(NC(=O)CS(=O)(=O)c2cn(Cc3cccc(C#N)c3)c3ccccc23)no1 52.7

Okay, and Cc1cc(NC(=O)CS(=O)(=O)c2cn(Cc3ccc(OC(F)(F)F)cc3)c3ccccc23)no1 ? 28.7

Moving on to the next compound: Cc1cc(NC(=O)CS(=O)(=O)c2cn(Cc3ccc(F)c(Br)c3)c3ccccc23)no1 24

Repeat for the following compound: COc1ccc(Cn2cc(S(=O)(=O)CC(=O)Nc3cc(C)on3)c3ccccc32)cc1 54.8

For Cc1cc(NC(=O)CS(=O)(=O)c2cn(Cc3cccc(-c4ccc(N5CCOCC5)nc4)c3)c3ccccc23)no1 then? 18.5

And the next one, Cc1cc(NC(=O)CS(=O)(=O)c2cn(Cc3cccc(-c4ccc(N5CCNCC5)nc4)c3)c3ccccc23)no1 ? 43.6

Cc1cc(NC(=O)CS(=O)(=O)c2c[nH]c3ccccc23)no1 , same question. 29

---

Target: Muscarinic acetylcholine receptor M1 (Rattus norvegicus) (UniProt P08482)
Assay: rat M1 positive allosteric modulators, single dose, ACh EC20, CHO cells (AID 2626)
Details: CHO rM1 cells, calcium response with ACh EC20; at 10 µM; hits give high values
Note to self: values exactly at 40% are rule met. So % of ACh max response (PAM) at or above 40% is rule met, below is rule not met.

Identify whether the reported % of ACh max response (PAM) of the following compound is 40% or greater: Cc1cc(NC(=O)CS(=O)(=O)c2cn(Cc3ccc(Br)cc3F)c3ccccc23)no1 rule not met

Now consider Cc1cc(NC(=O)C(Cc2ccccc2F)S(=O)(=O)c2cn(Cc3ccccc3F)c3ccccc23)no1 (centres undefined) . rule met

Subsequent entry: Cc1cc(NC(=O)CS(=O)(=O)c2cn(Cc3ccc(F)cc3F)c3ccccc23)no1 rule met

Next up: Cc1cc(NC(=O)CS(=O)(=O)c2cn(Cc3ccccc3F)c3ccccc23)no1 rule met

Same question for COc1ccccc1Cn1cc(S(=O)(=O)CC(=O)Nc2cc(C)on2)c2ccccc21 please. rule not met

Now the same for Cc1cc(NC(=O)C(C)S(=O)(=O)c2cn(Cc3cc(Br)cc(Br)c3)c3ccccc23)no1 (centres undefined) rule not met

Input Cc1cc(NC(=O)CS(=O)(=O)c2cn(Cc3ccc(Cl)cc3)c3ccccc23)no1 rule not met

# repeat for Cc1cc(NC(=O)CS(=O)(=O)c2cn(Cc3ccc(F)nc3)c3ccccc23)no1 rule met

Ok, now Cc1cc(NC(=O)CS(=O)(=O)c2cn(Cc3ccc4c(c3)OCO4)c3ccccc23)no1 rule not met

How about this compound: Cc1cc(NC(=O)CSc2cn(Cc3cccc(Br)c3)c3ccccc23)no1 rule not met

And then Cc1cc(NC(=O)C(Cc2cccc(Cl)c2)S(=O)(=O)c2cn(Cc3cccc(Cl)c3)c3ccccc23)no1 (centres undefined) , what is it? rule met

Further, for Cc1cc(NC(=O)C(Cc2ccc(F)cc2F)S(=O)(=O)c2cn(Cc3ccc(F)cc3F)c3ccccc23)no1 (centres undefined) ? rule not met

Then this compound: Cc1cc(NC(=O)C(C)S(=O)(=O)c2cn(Cc3cc(Br)ccc3F)c3ccccc23)no1 (centres undefined) rule not met

Now consider Cc1cc(NC(=O)CSc2cn(Cc3ccccc3Cl)c3ccccc23)no1 and answer again. rule not met
